target: human V1a receptor (Homo sapiens, UniProt P37288); assay: In-vitro binding assay, 3H-arginine-8-vasopressin, V1a; conditions: 0.2 μM test compound; read-out: V1a (binding), Percent inhibition at 0.2 μM
Sequence (P37288 whole entry): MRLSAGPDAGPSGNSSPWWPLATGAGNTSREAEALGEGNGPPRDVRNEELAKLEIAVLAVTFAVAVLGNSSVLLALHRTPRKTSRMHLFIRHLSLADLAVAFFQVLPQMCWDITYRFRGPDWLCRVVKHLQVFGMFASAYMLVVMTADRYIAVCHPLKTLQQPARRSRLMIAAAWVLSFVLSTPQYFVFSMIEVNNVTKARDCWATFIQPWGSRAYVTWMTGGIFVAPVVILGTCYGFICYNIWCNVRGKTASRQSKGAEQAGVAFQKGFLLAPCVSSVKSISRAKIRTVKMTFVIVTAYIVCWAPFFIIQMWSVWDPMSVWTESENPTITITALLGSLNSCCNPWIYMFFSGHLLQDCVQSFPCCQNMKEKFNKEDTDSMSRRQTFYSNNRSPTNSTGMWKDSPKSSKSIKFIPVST
compounds and their reported inhibition at 0.2 µM
Measured Metric: inhibition at 0.2 µM (%)

1. CCOC(=O)CC(=O)N1CCC2(CCN(C(=O)c3ccc(NC(=O)c4ccccc4-c4ccccc4)cc3)c3ccccc3C2)C1 (stereo not drawn) [Compound 25]; 35
2. COC(=O)CN1CCC2(CCN(C(=O)c3ccc(NC(=O)c4ccccc4-c4ccccc4)cc3)c3ccccc3C2)C1 (stereo not drawn) [Compound 22]; 66
3. O=C(Nc1ccc(C(=O)N2CCC3(CCN(C4CCCC4)C3)Cc3ccccc32)cc1)c1ccccc1-c1ccccc1 (stereo not drawn) [Compound 18]; 66
4. CCOC(=O)CN1CCC2(CCN(C(=O)c3ccc(NC(=O)c4ccccc4-c4ccccc4)cc3)c3ccccc3C2)C1 (stereo not drawn) [Compound 23]; 75
5. O=C(O)CC(=O)N1CCC2(CCN(C(=O)c3ccc(NC(=O)c4ccccc4-c4ccccc4)cc3)c3ccccc3C2)C1 (stereo not drawn) [Compound 26]; 23
6. CC(=O)N1CCC2(CCN(C(=O)c3ccc(NC(=O)c4ccccc4-c4ccccc4)cc3)c3ccccc3C2)C1 (stereo not drawn) [Compound 27]; 61

---

target: human V1a receptor (Homo sapiens); test: In-vitro binding assay, 3H-arginine-8-vasopressin, V1a; settings: membrane containing human V1a receptor, displacement of H3 vasopressin
pIC50: −log10 of the molar value.
Measured Metric: pIC50

1. CN1CCCC2(CCN(C(=O)c3ccc(NC(=O)c4cc(F)ccc4Cl)cc3)c3ccccc3C2)C1 (stereo not drawn) [Compound 8]; 7.92
2. CN1CCCC2(CCN(C(=O)c3ccc(NC(=O)c4ccccc4-c4ccccc4)cc3)c3ccccc3C2)C1 (stereo not drawn) [Compound 10]; 7.82
3. CN(C)CC(=O)N1CCC2(CCN(C(=O)c3ccc(NC(=O)c4ccccc4-c4ccccc4)cc3)c3ccccc3C2)C1 (stereo not drawn) [Compound 28]; 6.59

---

target: human V2 receptor (Homo sapiens); test: In-vitro binding assay, 3H-arginine-8-vasopressin, V2; settings: 0.2 μM test compound; read-out: V2 (binding), Percent inhibition at 0.2 μM
Measured Metric: inhibition at 0.2 µM (%)

1. CN1CCCC2(CCN(C(=O)c3ccc(NC(=O)c4cc(F)ccc4Cl)cc3)c3ccccc3C2)C1 (stereo not drawn) [Compound 8]; 52
2. CCOC(=O)CN1CCC2(CCN(C(=O)c3ccc(NC(=O)c4ccccc4-c4ccccc4)cc3)c3ccccc3C2)C1 (stereo not drawn) [Compound 23]; 58
3. CC(=O)N1CCC2(CCN(C(=O)c3ccc(NC(=O)c4ccccc4-c4ccccc4)cc3)c3ccccc3C2)C1 (stereo not drawn) [Compound 27]; 78
4. O=C(O)CC(=O)N1CCC2(CCN(C(=O)c3ccc(NC(=O)c4ccccc4-c4ccccc4)cc3)c3ccccc3C2)C1 (stereo not drawn) [Compound 26]; 83
5. O=C(Nc1ccc(C(=O)N2CCC3(CCN(C4CCCC4)C3)Cc3ccccc32)cc1)c1ccccc1-c1ccccc1 (stereo not drawn) [Compound 18]; 70
6. CCOC(=O)CC(=O)N1CCC2(CCN(C(=O)c3ccc(NC(=O)c4ccccc4-c4ccccc4)cc3)c3ccccc3C2)C1 (stereo not drawn) [Compound 25]; 77

---

molecular target: human V2 receptor (Homo sapiens, UniProt P30518); assay: V2 vasopressin receptor functional activity (cAMP accumulation, V2-HEK cells); assay type: cell-based; design: expressed in transfected cells; host or cells: HEK-293; details: block of vasopressin-stimulated cAMP accumulation in V2-HEK cells
Sequence (P30518 whole entry): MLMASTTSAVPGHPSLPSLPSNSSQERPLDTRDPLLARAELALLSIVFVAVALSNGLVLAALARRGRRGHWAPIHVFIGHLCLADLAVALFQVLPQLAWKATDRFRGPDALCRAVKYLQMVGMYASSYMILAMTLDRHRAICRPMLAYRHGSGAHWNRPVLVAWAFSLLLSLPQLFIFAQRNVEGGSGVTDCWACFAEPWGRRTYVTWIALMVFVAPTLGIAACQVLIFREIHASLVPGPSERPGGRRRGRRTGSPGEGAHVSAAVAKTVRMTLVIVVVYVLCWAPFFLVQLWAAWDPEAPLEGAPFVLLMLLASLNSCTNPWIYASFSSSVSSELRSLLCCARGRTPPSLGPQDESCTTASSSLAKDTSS
Measured Metric: IC50 (µM)

1) CCOC(=O)CC(=O)N1CCC2(CCN(C(=O)c3ccc(NC(=O)c4ccccc4-c4ccccc4)cc3)c3ccccc3C2)C1 (stereo not drawn); 0.306
2) CC(=O)N1CCC2(CCN(C(=O)c3ccc(NC(=O)c4ccccc4-c4ccccc4)cc3)c3ccccc3C2)C1 (stereo not drawn); 0.182
3) CN1CCCC2(CCN(C(=O)c3ccc(NC(=O)c4cc(F)ccc4Cl)cc3)c3ccccc3C2)C1 (stereo not drawn); 0.46

---

molecular target: human V1a receptor (Homo sapiens); test: V1a vasopressin receptor functional activity (intracellular calcium mobilization, FLIPR, V1a-HEK cells); type: cell-based; conditions: antagonism of vasopressin-induced calcium mobilization in V1a-HEK cells
Entries whose IC50 is below 0.2 µM take Yes; entries at or above 0.2 µM take No.

1. CCOC(=O)CN1CCC2(CCN(C(=O)c3ccc(NC(=O)c4ccccc4-c4ccccc4)cc3)c3ccccc3C2)C1 (centres unmarked); No
2. CN1CCCC2(CCN(C(=O)c3ccc(NC(=O)c4ccccc4-c4ccccc4)cc3)c3ccccc3C2)C1 (centres unmarked); Yes
3. COC(=O)CN1CCC2(CCN(C(=O)c3ccc(NC(=O)c4ccccc4-c4ccccc4)cc3)c3ccccc3C2)C1 (centres unmarked); No
4. CC(=O)N1CCC2(CCN(C(=O)c3ccc(NC(=O)c4ccccc4-c4ccccc4)cc3)c3ccccc3C2)C1 (centres unmarked); No
5. CN1CCCC2(CCN(C(=O)c3ccc(NC(=O)c4cc(F)ccc4Cl)cc3)c3ccccc3C2)C1 (centres unmarked); Yes
